Reported Property: Solubility pH 7.4 (mg/ml)
Report the value in mg/ml with no unit label.

For orientation, consider the following solved cases.
CC(C)C(N)C(=O)NC1CCN(c2nc3c(cc2F)c(=O)c(C(=O)O)cn3-c2ccc(F)cc2F)C1 (centres unmarked) [Example 19]
0.41
CC(N)C(=O)NC(C)C(=O)NC1CCN(c2nc3c(cc2F)c(=O)c(C(=O)O)cn3-c2ccc(F)cc2F)C1 (centres unmarked) [Example 15]
1.07
CC(C)C[C@H](NC(=O)[C@@H](N)CC(C)C)C(=O)NC1CCN(c2nc3c(cc2F)c(=O)c(C(=O)O)cn3-c2ccc(F)cc2F)C1 (some centres unmarked) [Example 55q]
0.19
CSCC[C@H](NC(=O)[C@@H](N)CC(C)C)C(=O)NC1CCN(c2nc3c(cc2F)c(=O)c(C(=O)O)cn3-c2ccc(F)cc2F)C1 (some centres unmarked) [Example 55p]
0.06

Alright, here's another compound for you.
Given the compound CC(C)C[C@H](NC(=O)[C@H](C)N)C(=O)NC1CCN(c2nc3c(cc2F)c(=O)c(C(=O)O)cn3-c2ccc(F)cc2F)C1 (some centres unmarked) [Example 55r] , what is its reported Solubility pH 7.4? 2.0

----------
System: Ps. Aeruginosa A5007
Assay: Second in vitro MIC test, Brain Heart Infusion Broth (BHIB)
Assay type: cell-based
Where a name gives a salt, the structure may show the parent alone.
Reported Property: MIC

CCC[C@H](NC(=O)CNC(=O)CN)C(=O)NC1CCN(c2nc3c(cc2F)c(=O)c(C(=O)O)cn3-c2ccc(F)cc2F)C1 (stereo partly drawn)
> 100 µg/mL

Param readout= MIC; system= Ps. Aeruginosa A5007; entry= Cl.Cl.NCCCC[C@H](N)C(=O)NC1CCN(c2nc3c(cc2F)c(=O)c(C(=O)O)cn3-c2ccc(F)cc2F)C1 (stereo partly drawn) ; returns value. > 100 µg/mL

What about this compound? N[C@@H](Cc1cnc[nH]1)C(=O)NC1CCN(c2nc3c(cc2F)c(=O)c(C(=O)O)cn3-c2ccc(F)cc2F)C1 (stereo partly drawn) [Example 44c, hydrochloride] > 64 µg/mL

----------
Listed molecules paired with reported Oral (ED50)
System: P. Aeruginosa A5007
Test: Acute mouse protection test
Assay type: in vivo
Details: mice infected i.p. with P. Aeruginosa A5007; oral dosing at 1 and 5 hours post-infection; observed 7 days
Where a name gives a salt, the structure may show the parent alone.
Report the value in mg/kg/day with no unit label.

For orientation, consider the following solved cases.
NCC(=O)NC1CCN(c2nc3c(cc2F)c(=O)c(C(=O)O)cn3-c2ccc(F)cc2F)C1 (stereo not drawn) [Example 7]
11.4
CCC[C@H](NC(=O)[C@@H](N)CCC)C(=O)NC1CCN(c2nc3c(cc2F)c(=O)c(C(=O)O)cn3-c2ccc(F)cc2F)C1 (stereo partly drawn) [Example 3b, hydrochloride]
9.1

Given the molecule N[C@@H](CC(=O)O)C(=O)NC1CCN(c2nc3c(cc2F)c(=O)c(C(=O)O)cn3-c2ccc(F)cc2F)C1 (stereo partly drawn) [Example 45, hydrochloride] , what is its reported Oral (ED50)? 13.0

----------
Assay: Conversion of prodrug to parent drug in whole blood at 37° C.
Format: in vitro ADME, Dog
Listed compounds paired with reported Half Life Dog
Report the value in m with no unit label.

For orientation, consider the following solved cases.
O=C(O)c1cn(-c2ccc(F)cc2F)c2nc(N3CCC(NC(=O)C4CCCN4)C3)c(F)cc2c1=O (stereo not shown)
41
CC(N)C(=O)NC(C)C(=O)NC1CCN(c2nc3c(cc2F)c(=O)c(C(=O)O)cn3-c2ccc(F)cc2F)C1 (stereo not shown)
2.4
Cl.Cl.NCCCC[C@H](N)C(=O)NC1CCN(c2nc3c(cc2F)c(=O)c(C(=O)O)cn3-c2ccc(F)cc2F)C1 (stereo partly shown)
46

Alright, here's another compound for you.
Given the compound CC(N)C(=O)NC(Cc1ccccc1)C(=O)NC1CCN(c2nc3c(cc2F)c(=O)c(C(=O)O)cn3-c2ccc(F)cc2F)C1 (stereo not shown) , what is its reported Half Life Dog? 10.4
